src = ChEMBL document CHEMBL1135436

# Study System: UniProt P56450
# Sequence (P56450 whole entry): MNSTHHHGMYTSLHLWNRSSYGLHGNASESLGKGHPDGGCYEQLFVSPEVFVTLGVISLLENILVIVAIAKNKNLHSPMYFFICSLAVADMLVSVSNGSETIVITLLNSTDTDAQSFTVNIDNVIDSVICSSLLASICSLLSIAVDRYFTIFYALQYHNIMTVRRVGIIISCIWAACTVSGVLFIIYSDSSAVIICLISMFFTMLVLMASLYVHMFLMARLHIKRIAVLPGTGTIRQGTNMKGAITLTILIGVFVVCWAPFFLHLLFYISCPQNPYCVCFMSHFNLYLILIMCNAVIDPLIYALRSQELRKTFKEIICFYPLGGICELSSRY
# Procedure Text: In vitro activation of mouse recombinant Melanocortin-4 receptor.
pEC50: −log10 of the molar value. Where a SMILES comes first, the peptide text is derived from it. [ ]: non-standard residue; d: D form. 2Thi = N[C@@H](Cc1cccs1)C(=O)O
Attribute Measured: pEC50

Molecule	Attribute Measured	Value Measured
CC(=O)N[C@H](Cc1cnc[nH]1)C(=O)N[C@H](Cc1ccccc1)C(=O)N[C@@H](CCCNC(=N)N)C(=O)N[C@@H](Cc1c[nH]c2ccccc12)C(N)=O	pEC50	6.30
CC(=O)NC1(C(=O)N[C@H](Cc2ccccc2)C(=O)N[C@@H](CCCNC(=N)N)C(=O)N[C@@H](Cc2c[nH]c3ccccc23)C(N)=O)CCc2ccccc2C1 (stereo partly specified)	pEC50	6.15

[a] CC(=O)N[C@@H](Cc1cccs1)C(=O)N[C@H](Cc1ccccc1)C(=O)N[C@@H](CCCNC(=N)N)C(=O)N[C@@H](Cc1c[nH]c2ccccc12)C(N)=O (Ac-[2Thi][dF]RW-NH2)
[b] CC(=O)N[C@@H](Cc1ccc2ccccc2c1)C(=O)N[C@H](Cc1ccccc1)C(=O)N[C@@H](CCCN=C(N)N)C(=O)N[C@@H](Cc1c[nH]c2ccccc12)C(N)=O
[c] CC(=O)N[C@H](Cc1ccc2ccccc2c1)C(=O)N[C@H](Cc1ccccc1)C(=O)N[C@@H](CCCNC(=N)N)C(=O)N[C@@H](Cc1c[nH]c2ccccc12)C(N)=O
[d] CC(=O)N[C@@H](Cc1cccnc1)C(=O)N[C@H](Cc1ccccc1)C(=O)N[C@@H](CCCN=C(N)N)C(=O)N[C@@H](Cc1c[nH]c2ccccc12)C(N)=O
Order the records, beginning with the lowest pEC50 and ending with the highest. Use the labels to give the ranking in the order requested. b, c, d, a
